Reference source for all entries: the supplement of paper PMC10065799

Recorded phosphorylation enrichment for the following sequences
System: AncSZ;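 further: 11-residue human phosphosite peptides and single-mutation variants displayed on the E. coli surface, counted by deep sequencing, each peptide's frequency after selection divided by its frequency in the unselected input library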;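 further: frequency after pTyr selection over input frequency; kinase dosed for 20-30% of maximal phosphorylation in three min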
Assay: phosphorylation enrichment, bacterial display (enrichment ratio); higher = better substrate or ligand; peptides without Tyr show the background

>  <SEQUENCE INPUT>
KRIETYFSKNF [PLP1_Y50_L46R_YF]

>  <phosphorylation enrichment>
0.703

$$$$
>  <SEQUENCE INPUT>
PPGRSYSPCDF [TNS1_Y793_Y796C_YF]

>  <phosphorylation enrichment>
1.01

$$$$
>  <SEQUENCE INPUT>
EKKQTYGSCRK [LACTB_Y473_R469K]

>  <phosphorylation enrichment>
0.533

$$$$
>  <SEQUENCE INPUT>
PRARTYCFKQE [KLHDC9_Y175_S171R_YF]

>  <phosphorylation enrichment>
0.519

$$$$
>  <SEQUENCE INPUT>
CPEARYNRSPI [PTAR1_Y42]

>  <phosphorylation enrichment>
0.699

$$$$
>  <SEQUENCE INPUT>
VFPIDYYFPPQ [AR_Y552_L548F]

>  <phosphorylation enrichment>
5.64

$$$$

----------
Target: SHP2-C SH2;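 further: peptide library displayed on the E. coli surface as eCPX fusions, selected cells deep-sequenced, score is each peptide's frequency after selection divided by its frequency in the input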
Test: SH2 binding enrichment of the phosphorylated peptide, bacterial display (enrichment ratio); higher = better substrate or ligand; peptides without Tyr show the background

>  <SEQUENCE INPUT>
DGQVNYEELVQ [CALM1_Y139_F142L]

>  <SH2 binding enrichment>
0.733

$$$$
>  <SEQUENCE INPUT>
HEEDNYIEMIP [NWD2_Y566_L569M]

>  <SH2 binding enrichment>
0.747

$$$$
>  <SEQUENCE INPUT>
VKPENYWRLDI [VHL_Y175_R176W]

>  <SH2 binding enrichment>
0.876

$$$$
>  <SEQUENCE INPUT>
INPIIYAFVVE [CCR5_Y297_G301V]

>  <SH2 binding enrichment>
0.73

$$$$
>  <SEQUENCE INPUT>
RIPFRYPKEFQ [IDS_Y234_H229R]

>  <SH2 binding enrichment>
0.531

$$$$
>  <SEQUENCE INPUT>
FEGHSYSACTT [MMP9_Y241_R239H]

>  <SH2 binding enrichment>
0.642

$$$$
>  <SEQUENCE INPUT>
TMEDSYRKQVV [KRAS_Y40_I36M]

>  <SH2 binding enrichment>
0.48

$$$$
>  <SEQUENCE INPUT>
IGKAGYTDKVV [ENO1_Y236]

>  <SH2 binding enrichment>
0.606

$$$$
>  <SEQUENCE INPUT>
GEVLVYAEDPA [FLNA_Y319_V320A]

>  <SH2 binding enrichment>
1

$$$$
>  <SEQUENCE INPUT>
EEGNPSFSSAR [MCCC2_Y520_Y520S_YF]

>  <SH2 binding enrichment>
0.574

$$$$
>  <SEQUENCE INPUT>
HLVSEYQQFQD [TUBB3_Y422_D417H_YF]

>  <SH2 binding enrichment>
0.75

$$$$
>  <SEQUENCE INPUT>
LSALDYKIFFF [WDPCP_Y210_YF]

>  <SH2 binding enrichment>
1.54

$$$$
>  <SEQUENCE INPUT>
HNVAIYEGFAL [ACTC1_Y168_P166A_YF]

>  <SH2 binding enrichment>
1

$$$$
>  <SEQUENCE INPUT>
DAKAIYDFTDT [PDK1_Y136]

>  <SH2 binding enrichment>
0.6

$$$$
>  <SEQUENCE INPUT>
IYRASYVPFAA [RBM47_Y541_G538R]

>  <SH2 binding enrichment>
0.742

$$$$
>  <SEQUENCE INPUT>
DLVHPYVHKIL [SF3B1_Y570_R568H]

>  <SH2 binding enrichment>
0.983

$$$$
>  <SEQUENCE INPUT>
EEGRVYVYRLS [ITGAE_Y549]

>  <SH2 binding enrichment>
2.07

$$$$
>  <SEQUENCE INPUT>
DERQPYVHMNG [IGF1R_Y1346_A1347V]

>  <SH2 binding enrichment>
0.704

$$$$
>  <SEQUENCE INPUT>
KRIETYFSKNF [PLP1_Y50_L46R_YF]

>  <SH2 binding enrichment>
0.51

$$$$
>  <SEQUENCE INPUT>
YASALYRQRRS [FGF11_Y162]

>  <SH2 binding enrichment>
0.34

$$$$
>  <SEQUENCE INPUT>
GHEYIYVDRMQ [PDGFRB_Y581_P584R]

>  <SH2 binding enrichment>
0.859

$$$$
>  <SEQUENCE INPUT>
KDHPDYKFQPR [SOX10_Y171_YF]

>  <SH2 binding enrichment>
0.71

$$$$
>  <SEQUENCE INPUT>
NFCPGYNNFFN [USH2A_Y467_R464C_YF]

>  <SH2 binding enrichment>
0.889

$$$$
>  <SEQUENCE INPUT>
RGLQVYHKRNA [LRP2_Y2010_R2012K]

>  <SH2 binding enrichment>
0.539

$$$$
>  <SEQUENCE INPUT>
PGVNFYFQVSA

>  <SH2 binding enrichment>
0.524

$$$$
>  <SEQUENCE INPUT>
WQLEIYRASRP [ERCC4_Y594_R589W]

>  <SH2 binding enrichment>
0.546

$$$$
>  <SEQUENCE INPUT>
GEPLSHTRFSL [TFRC_Y20_Y20H]

>  <SH2 binding enrichment>
0.641

$$$$
>  <SEQUENCE INPUT>
RNVLVYDKLNV [ROR2_Y624]

>  <SH2 binding enrichment>
0.535

$$$$
>  <SEQUENCE INPUT>
SNMPTYSGHFT [GRIN2A_Y1224]

>  <SH2 binding enrichment>
0.88

$$$$
>  <SEQUENCE INPUT>
KTTGGYAGGLS [KRT8_Y419_S417G]

>  <SH2 binding enrichment>
0.575

$$$$
>  <SEQUENCE INPUT>
PTDGVYVMPTV [MYO7A_Y1668_S1666G]

>  <SH2 binding enrichment>
0.943

$$$$
>  <SEQUENCE INPUT>
LNAGAYSKVVE [PPT1_Y172_Q177E]

>  <SH2 binding enrichment>
1.08

$$$$
>  <SEQUENCE INPUT>
RAILDYIASKY [GSTA3_Y74_N73D]

>  <SH2 binding enrichment>
0.872

$$$$
>  <SEQUENCE INPUT>
ADSLRYIFPKL [EIF2B3_Y92_YF]

>  <SH2 binding enrichment>
1.41

$$$$
>  <SEQUENCE INPUT>
LEDDMYRKTCT [XPA_Y257]

>  <SH2 binding enrichment>
0.738

$$$$
>  <SEQUENCE INPUT>
GGGGGYNRSSG [FUS_Y232]

>  <SH2 binding enrichment>
0.503

$$$$
>  <SEQUENCE INPUT>
RPSRQYATLDV [SCAMP3_Y35]

>  <SH2 binding enrichment>
6.79

$$$$
>  <SEQUENCE INPUT>
CNNFICGGCRG [SPINT2_Y163_Y163C]

>  <SH2 binding enrichment>
0.757

$$$$
>  <SEQUENCE INPUT>
QHNPEYVQQAT [LRRC7_Y1058_S1063T]

>  <SH2 binding enrichment>
0.617

$$$$
>  <SEQUENCE INPUT>
WQQQSYLFSGI [CTNNB1_Y30_D32Y_YF]

>  <SH2 binding enrichment>
0.882

$$$$
>  <SEQUENCE INPUT>
TTIVSYRASQP [MKI67_Y1737_K1734I]

>  <SH2 binding enrichment>
0.74

$$$$
>  <SEQUENCE INPUT>
LLREWYLQDPF [SIX3_Y225_YF]

>  <SH2 binding enrichment>
2.31

$$$$
>  <SEQUENCE INPUT>
PKEQKYSFLQD [GH1_Y68_N73D]

>  <SH2 binding enrichment>
0.895

$$$$
>  <SEQUENCE INPUT>
PELINYHQHNS [BTK_Y361]

>  <SH2 binding enrichment>
0.767

$$$$
>  <SEQUENCE INPUT>
YRTGHYLCNAC [GATA1_Y223_D218Y]

>  <SH2 binding enrichment>
1.12

$$$$
>  <SEQUENCE INPUT>
LRIAVYHEILI [CREBBP_Y1450_T1447I]

>  <SH2 binding enrichment>
0.798

$$$$
>  <SEQUENCE INPUT>
LWPIWYRCHRP [MRGPRX1_Y130]

>  <SH2 binding enrichment>
1.06

$$$$
>  <SEQUENCE INPUT>
NGSFRYVIISQ [LRP1B_Y1988]

>  <SH2 binding enrichment>
5.12

$$$$
>  <SEQUENCE INPUT>
NYYDTCIKTCL [IQGAP2_Y1445_Y1445C]

>  <SH2 binding enrichment>
0.706

$$$$
>  <SEQUENCE INPUT>
LNERHYGGLTD [PGAM2_Y92_G97D]

>  <SH2 binding enrichment>
0.773

$$$$
>  <SEQUENCE INPUT>
TSAEGYQDVRD [ABLIM1_Y439_P434T]

>  <SH2 binding enrichment>
0.779

$$$$
>  <SEQUENCE INPUT>
QGLRLYRPHLP [BTK_Y617_A622P]

>  <SH2 binding enrichment>
1.34

$$$$
>  <SEQUENCE INPUT>
LNPLFYSLRNK [OR5R1_Y290_I289F]

>  <SH2 binding enrichment>
2.19

$$$$
>  <SEQUENCE INPUT>
SFKNKYGMVAQ [APOB_Y276_YF]

>  <SH2 binding enrichment>
0.543

$$$$
>  <SEQUENCE INPUT>
DRIVNYSRASI [ATP7A_Y1459]

>  <SH2 binding enrichment>
0.88

$$$$
>  <SEQUENCE INPUT>
GMKIVYVFVKK [DNAI2_Y5_E2K_YF]

>  <SH2 binding enrichment>
1.21

$$$$
>  <SEQUENCE INPUT>
DNQFAYLKAII [HNF4A_Y288_E285Q_YF]

>  <SH2 binding enrichment>
0.62

$$$$
